Target: oestrogen receptor (ER) (Homo sapiens, UniProt P03372)
Construct: These MVLN cells express, along with the functional oestrogen receptor (ER), a reporter construct; endogenous in cells
Sequence (P03372 whole entry): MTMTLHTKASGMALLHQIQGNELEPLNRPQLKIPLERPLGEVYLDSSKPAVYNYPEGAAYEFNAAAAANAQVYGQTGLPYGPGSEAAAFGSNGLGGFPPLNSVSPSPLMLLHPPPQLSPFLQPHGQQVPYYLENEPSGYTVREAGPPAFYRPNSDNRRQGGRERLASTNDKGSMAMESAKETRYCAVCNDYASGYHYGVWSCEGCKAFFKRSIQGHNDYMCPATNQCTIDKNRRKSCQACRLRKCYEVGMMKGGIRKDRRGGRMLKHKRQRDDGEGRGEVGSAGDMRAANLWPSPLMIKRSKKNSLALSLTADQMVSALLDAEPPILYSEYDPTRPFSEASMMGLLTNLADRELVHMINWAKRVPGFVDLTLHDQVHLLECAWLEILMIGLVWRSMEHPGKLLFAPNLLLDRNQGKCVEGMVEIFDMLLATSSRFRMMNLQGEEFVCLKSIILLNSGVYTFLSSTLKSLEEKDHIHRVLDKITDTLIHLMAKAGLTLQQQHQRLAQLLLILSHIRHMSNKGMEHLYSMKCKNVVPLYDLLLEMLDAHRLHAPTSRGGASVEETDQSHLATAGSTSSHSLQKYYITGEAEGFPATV
Experiment: Anti-oestrogenic action in MVLN cells (inhibition of estradiol-induced luciferase, transactivation antagonism)
Settings: inhibition of estradiol-induced luciferase activity, read-out: Anti-oestrogenic action in vitro: MVLN transactivation antagonism IC50
Record form. Attribute: log10(IC50). Fill in for each entry.
Hi team, quick reminder: these entries are log10 of IC50 (nM).

Q: Please give the measured log10(IC50) for this compound: "CN(CCCCCCC1=C(c2ccc(O)cc2)CCCc2cc(O)ccc21)CCCS(=O)(=O)CCCC(F)(F)C(F)(F)F"
Result: 0.00

Q: Look at this compound and give its reported log10(IC50). "O=S(=O)(CCCN(CCCO)CCCCCCC1=C(c2cccc(O)c2)CCCc2cc(O)ccc21)CCCC(F)(F)C(F)(F)F"
Result: 0.00

Q: Value lookup for log10(IC50); key = "CN(CCCCCCC1=C(c2ccccc2)CCCc2c1ccc(O)c2Cl)CCCS(=O)(=O)CCCC(F)(F)C(F)(F)F"
Result: 1.51

Q: Suppose we examine the compound CN(CCCCCCC1=C(c2ccccc2)CCCc2c1ccc(O)c2Cl)CCC[S+]([O-])CCCC(F)(F)C(F)(F)F (racemic) ; what log10(IC50) value has been reported?
Result: 1.40

Q: Record request: log10(IC50) value, item "O=S(=O)(CCCN(CCCO)CCCCCCC1=C(c2ccccc2)CCCc2cc(O)ccc21)CCC(F)(F)F"
Result: 1.59

Q: Query: log10(IC50); subject: "CCN(CCCCCCC1=C(c2ccccc2)CCCc2cc(O)ccc21)CCCS(=O)(=O)CCCC(F)(F)C(F)(F)F"
Result: 0.78

Q: For the compound shown here, "CN(CCCCCCC1=C(c2ccc(F)c(O)c2)CCCc2cc(O)ccc21)CCCCCCS(=O)(=O)CCCC(F)(F)C(F)(F)F" , give the reported log10(IC50).
Result: 1.04

Q: Requested read-out: log10(IC50). Entry: "COCCN(CCCCCCC1=C(c2ccc(F)c(O)c2)CCCc2cc(O)ccc21)CCCS(=O)(=O)CCCC(F)(F)C(F)(F)F"
Result: 0.30

Q: I would be grateful if you could share the reported log10(IC50) for "COCCCN(CCCCCCC1=C(c2cccc(O)c2)CCCc2cc(O)ccc21)CCCS(=O)(=O)CCCC(F)(F)C(F)(F)F" .
Result: 0.48

Q: Look up log10(IC50) for this compound: CC(C)(O)CN(CCCCCCC1=C(c2ccc(F)c(O)c2)CCCc2cc(O)c(F)cc21)CCC[S+]([O-])CCC(F)(F)F (racemic)
Result: 0.60

Q: If you can, please state the reported log10(IC50) value of "CN(CCCCCCC1=C(c2ccc(F)c(O)c2)CCCc2cc(O)c(F)cc21)CCCS(=O)(=O)CCCC(F)(F)C(F)(F)F" .
Result: 0.48

Q: Recorded log10(IC50) of "CN(CCCCCCC1=C(c2ccc(F)c(O)c2)CCCc2c1ccc(O)c2F)CCCS(=O)(=O)CCC(F)(F)C(F)(F)F" , please.
Result: 1.53

Q: Bench note: what log10(IC50) did "CN(CCCCCC1=C(c2cccc(O)c2)CCCc2cc(O)ccc21)CCCCCS(=O)(=O)CCCC(F)(F)C(F)(F)F" show?
Result: 0.90

Q: Quick check: log10(IC50) of COCCCN(CCCCCCC1=C(c2cccc(O)c2)CCCc2cc(O)ccc21)CCC[S+]([O-])CCCC(F)(F)C(F)(F)F (racemic) ?
Result: 0.30
